test: Circular dichroism (CD) α-helicity; type: physicochemical; settings: Table 1; CD of free peptide, 25 °C, 1 mM Hepes pH 7.4, 5% methanol
Bridge positions count the residues as written; N and C are the ends. Square brackets hold non-standard residues; d marks the D form. Peptide text beside a SMILES is read from it. R8 = C=CCCCCCC[C@@](C)(N)C(=O)O; Cba = N[C@@H](CC1CCC1)C(=O)O; S5 = C=CCCC[C@](C)(N)C(=O)O
measured endpoint: Helicity (%)
Hi! Could you send only the number? It should be in %, unit omitted.

Determine from records and report Helicity (%) for CC(=O)N[C@@H](CC(C)C)C(=O)N[C@H](C(=O)N[C@@H](Cc1ccccc1)C(=O)NC(C)(C)C(=O)N[C@H](CCC(=O)O)C(=O)N[C@@H](Cc1ccc(O)cc1)C(=O)N[C@@H](Cc1c[nH]c2ccccc12)C(=O)N[C@@H](CCC(N)=O)C(=O)N[C@@H](CC(C)C)C(=O)N[C@@H](CC1CCC1)C(=O)NC(C)(C)C(=O)N[C@@H](CO)C(=O)N[C@@H](C)C(=O)N[C@@H](C)C(N)=O)[C@@H](C)O
21.4

Supply recorded Helicity (%) for CC(=O)N[C@@H](CC(C)C)C(=O)N[C@H](C(=O)N[C@@H](Cc1ccccc1)C(=O)N[C@]1(C)CCCCCCC=CCCC[C@@](C)(C(=O)N[C@@H](CO)C(=O)N[C@@H](C)C(=O)N[C@@H](C)C(N)=O)NC(=O)[C@H](CC2CCC2)NC(=O)[C@H](CC(C)C)NC(=O)[C@H](C)NC(=O)[C@H](Cc2c[nH]c3ccccc23)NC(=O)[C@H](Cc2ccc(O)cc2)NC(=O)[C@H](CCC(=O)O)NC1=O)[C@@H](C)O [Peptide Q8A] here.
33.4

# return recorded Helicity (%) for entry CC(=O)N[C@@H](CC(C)C)C(=O)N[C@H](C(=O)N[C@@H](Cc1ccccc1)C(=O)NC(C)(C)C(=O)N[C@@H](CCC(=O)O)C(=O)N[C@@H](Cc1ccc(O)cc1)C(=O)N[C@@H](Cc1c[nH]c2ccccc12)C(=O)N[C@@H](CCC(N)=O)C(=O)N[C@H](CC(C)C)C(=O)N[C@@H](CC1CCC1)C(=O)NC(C)(C)C(=O)N[C@@H](CO)C(=O)N[C@@H](C)C(=O)N[C@@H](C)C(N)=O)[C@@H](C)O
19.7

Retrieve Helicity (%) measured for CC(=O)N[C@@H](CC(C)C)C(=O)N[C@H](C(=O)N[C@@H](Cc1ccccc1)C(=O)N[C@]1(C)CCCCCCC=CCCC[C@@](C)(C(=O)N[C@@H](CO)C(=O)N[C@@H](C)C(=O)N[C@@H](C)C(N)=O)NC(=O)[C@H](CC2CCC2)NC(=O)[C@H](CC(C)C)NC(=O)[C@H](CCC(N)=O)NC(=O)[C@H](Cc2c[nH]c3ccccc23)NC(=O)[C@@H](Cc2ccc(O)cc2)NC(=O)[C@H](CCC(=O)O)NC1=O)[C@@H](C)O and print it.
43.2

Tell me measured Helicity (%) for CC(=O)N[C@@H](CC(C)C)C(=O)N[C@H](C(=O)N[C@@H](Cc1ccccc1)C(=O)N[C@]1(C)CCCCCCC=CCCC[C@@](C)(C(=O)N[C@@H](CO)C(=O)N[C@@H](C)C(=O)N[C@@H](C)C(N)=O)NC(=O)[C@H](CC2CCC2)NC(=O)[C@H](C)NC(=O)[C@H](CCC(N)=O)NC(=O)[C@H](Cc2c[nH]c3ccccc23)NC(=O)[C@H](Cc2ccc(O)cc2)NC(=O)[C@H](CCC(=O)O)NC1=O)[C@@H](C)O [Peptide L9A] (Ac-LTF[R8]EYWQA[Cba][S5]SAA-NH2; staple 4-11) please.
48.7
